These entries and their values trace back to paper PMC5540273.

- System: EPHA6
- PARTICULARS: concentration: 1 μM, replicates: in singlicate; n = 1;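 also: KINOMEscan kinase panel screen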
Label True when %Inh is at or above 2%; anything below gets False.

compound=Nc1ncc(-c2cn[nH]c2)c2scc(-c3ccc4c(c3)CCN4C(=O)Cc3ccccc3)c12 assigned_category=True
compound=CN(c1ccc(F)c(NC(=O)c2cccc(OC(C)(C)C#N)c2Cl)c1)c1ccc2nc(NC(=O)C3CC3)sc2n1 assigned_category=True
compound=COc1ccc(C)c(Nc2ccnc(Nc3ccc(-c4cnc[nH]4)cc3)n2)c1.Cl assigned_category=True
compound=CCn1cnc2c(NCc3ccccc3)ncnc21 assigned_category=False
compound="COc1cc(Nc2nccc(N3CCC(NC(=O)Nc4ccc5c(c4)OCO5)C3)n2)cc(OC)c1OC (centres unmarked)" assigned_category=True
compound=COc1cccc(CC(=O)N2CCc3cc(-c4cn(C)c5ncnc(N)c45)ccc32)c1 assigned_category=True
compound=Cc1cccc(Nc2nc(NCCN)ncc2C(N)=O)c1 assigned_category=False
compound=N#Cc1cnc2cc(-c3cnc(CNCCN4CCOCC4)s3)ccc2c1Nc1ccc(Oc2ccccc2)cc1 assigned_category=True
compound=Cc1ccc(O)cc1Nc1ccnc2ccc(C(C)(C)C)cc12 assigned_category=True
compound=Cc1nn2c(=O)cc(N3CCO[C@H](C)C3)nc2n1Cc1cccc(Cl)c1Cl assigned_category=False
compound=CN(C)CCNS(=O)(=O)c1ccc(-c2ccnc3[nH]ccc23)cc1 assigned_category=False
compound=COc1cc(Nc2nccc(N3CCC(NS(=O)(=O)c4ccc(NC(C)=O)cc4)CC3)n2)cc(OC)c1OC assigned_category=True
compound=COc1cccc(C2=C(Nc3cccc(O)c3)C(=O)NC2=O)c1 assigned_category=True
compound="NCCC(NC(=O)c1cc(Br)c(-c2ccnc3[nH]ccc23)s1)c1ccccc1.O=C(O)C(F)(F)F.O=C(O)C(F)(F)F (centres unmarked)" assigned_category=False
compound=CN(C)c1ncnc2nc[nH]c12 assigned_category=False
compound=O=C(Nc1n[nH]c2nc(-c3ccccc3)ccc12)C1CC1 assigned_category=False

----------
Measured %Inh accompanies every entry in the list below.
- System: CDK3
- PARTICULARS: concentration: 1 μM, replicates: in singlicate; n = 1
OBSERVATION TYPE: %Inh (%)

molecule=Cn1cc(-c2ccc3c(c2)CCN3C(=O)Cc2cc(F)cc(F)c2F)c2c(N)ncnc21 observation_type=%Inh quantity_unit=% recorded_number=45
molecule="Cl.Cl.NC(CNC(=O)c1cc(Br)c(-c2ccnc3[nH]ccc23)s1)c1ccccc1 (centres unmarked)" observation_type=%Inh quantity_unit=% recorded_number=25
molecule=Cc1ccc(O)cc1Nc1ccnc2cc(-c3ccc(CN4CCCCC4)o3)ccc12 observation_type=%Inh quantity_unit=% recorded_number=8
molecule=CCNc1nccc(-c2c(-c3ccc(F)cc3)ncn2C2CCN(C)CC2)n1 observation_type=%Inh quantity_unit=% recorded_number=0
molecule=Fc1cc(Cl)ccc1Nc1ccnc2cc(-c3ccc(CN4CCSCC4)o3)ccc12 observation_type=%Inh quantity_unit=% recorded_number=0
molecule=COc1cccc(C2=C(Nc3cccc(O)c3)C(=O)NC2=O)c1 observation_type=%Inh quantity_unit=% recorded_number=13
molecule=Nc1ncc(-c2ccc3nccc(-c4ccncc4)c3c2)cc1S(=O)(=O)N1CCCCC1 observation_type=%Inh quantity_unit=% recorded_number=7
molecule=Cc1cccc(Nc2nc(NCCN)ncc2C(N)=O)c1 observation_type=%Inh quantity_unit=% recorded_number=5
molecule=CN(c1ccc(NC(=O)N2CCN(CCCN3CCOCC3)CC2)cc1)c1ccnc(Nc2ccc(CS(C)(=O)=O)cc2)n1.Cl observation_type=%Inh quantity_unit=% recorded_number=18
molecule=CN(C)c1ncnc2nc[nH]c12 observation_type=%Inh quantity_unit=% recorded_number=17
molecule=COc1ccc(C)c(Nc2ccnc(Nc3ccc(-c4cnc[nH]4)cc3)n2)c1.Cl observation_type=%Inh quantity_unit=% recorded_number=3
molecule=CN(c1ccc(NC(=O)Nc2cccc(Cl)c2)cc1)c1ccnc(N)n1.Cl observation_type=%Inh quantity_unit=% recorded_number=0
molecule="Cc1ccc(-c2ccc3occ(-c4ccc(S(C)=O)cc4)c3c2)nn1 (centres unmarked)" observation_type=%Inh quantity_unit=% recorded_number=4
molecule=Fc1cc(Cl)ccc1Nc1ccnc2cc(-c3ccc(CN4CCOCC4)o3)ccc12 observation_type=%Inh quantity_unit=% recorded_number=18

----------
- Test system: CAMK2D
- PARTICULARS: concentration: 1 μM, replicates: in singlicate; n = 1
OBSERVATION TYPE: %Inh (%)

compound=COc1cccc(CC(=O)N2CCc3cc(-c4cn(C)c5ncnc(N)c45)ccc32)c1 measurement_target=CAMK2D recorded_number=15
compound=Cn1cc(-c2cnc(N)c3c(-c4ccc5c(c4)CCN5C(=O)Cc4ccccc4)csc23)cn1 measurement_target=CAMK2D recorded_number=0
compound="NCCC(NC(=O)c1cc(Br)c(-c2ccnc3[nH]ccc23)s1)c1ccccc1.O=C(O)C(F)(F)F.O=C(O)C(F)(F)F (stereo not shown)" measurement_target=CAMK2D recorded_number=29
compound=COc1ccc(C)c(Nc2ccnc(Nc3ccc(-c4cnc[nH]4)cc3)n2)c1.Cl measurement_target=CAMK2D recorded_number=22
compound=CC(C)c1nc(-c2cccc(NS(=O)(=O)c3c(F)cccc3F)c2)c(-c2ccnc(Nc3ccc(N4CCOCC4)nc3)n2)s1.Cl measurement_target=CAMK2D recorded_number=2
compound=Cc1ccc(Nc2ccnc(Nc3ccc(C)c(F)c3)n2)cc1O.Cl measurement_target=CAMK2D recorded_number=0
compound=COC(=O)Nc1nc2cc(Oc3ccc(NC(=O)Nc4cccc(SC)c4)cc3)ccc2[nH]1.Cl measurement_target=CAMK2D recorded_number=0
compound=COc1cccc(C2=C(Nc3cccc(O)c3)C(=O)NC2=O)c1 measurement_target=CAMK2D recorded_number=25
compound=Cc1ccc(O)cc1Nc1ccnc2ccc(C(C)(C)C)cc12 measurement_target=CAMK2D recorded_number=18
compound=O=C(Nc1n[nH]c2cc(-c3cccs3)ccc12)C1CC1 measurement_target=CAMK2D recorded_number=0
compound="Cc1ccc(-c2ccc3occ(-c4ccc(S(C)=O)cc4)c3c2)nn1 (stereo not shown)" measurement_target=CAMK2D recorded_number=7
compound=Nc1ncc(-c2cn[nH]c2)c2scc(-c3ccc4c(c3)CCN4C(=O)Cc3ccccc3)c12 measurement_target=CAMK2D recorded_number=0
compound=COC(=O)Nc1nc2ccc(Oc3ccc(NC(=O)Nc4cc(C(F)(F)F)ccc4F)cc3)cc2[nH]1.Cl measurement_target=CAMK2D recorded_number=0
compound=Cc1ccc(O)cc1Nc1ccnc2cc(-c3ccc(CN4CCCCC4)o3)ccc12 measurement_target=CAMK2D recorded_number=10
compound=Cn1cc(-c2ccc3c(c2)CCN3C(=O)Cc2cc(F)cc(F)c2F)c2c(N)ncnc21 measurement_target=CAMK2D recorded_number=0
compound=O=C(O)C(F)(F)F.O=c1[nH]ccc2nc(N[C@@H]3CCNC3)nc(Nc3ccc4c(c3)S(=O)(=O)CC4)c12 measurement_target=CAMK2D recorded_number=55
compound=Cc1ccc(C)c(NC(=O)Nc2ccc(C)c(-c3ccc(C(=O)Nc4ccncc4)cc3)c2)c1 measurement_target=CAMK2D recorded_number=0
compound=CCNC(=O)/C=C/c1n[nH]c2cc(Sc3ccccc3C(=O)NC)ccc12 measurement_target=CAMK2D recorded_number=17
compound=Cn1cc(-c2ccc3c(c2)CCN3C(=O)Cc2cc(F)cc(C(F)(F)F)c2)c2c(N)ncnc21 measurement_target=CAMK2D recorded_number=0
compound="COc1cc(Nc2nccc(N3CCC(NC(=O)Nc4ccc5c(c4)OCO5)C3)n2)cc(OC)c1OC (stereo not shown)" measurement_target=CAMK2D recorded_number=14
compound="Cl.Cl.NCC(NC(=O)c1cc(-c2cccnc2)c(-c2ccnc3[nH]ccc23)s1)c1ccccc1 (stereo not shown)" measurement_target=CAMK2D recorded_number=8
compound=CC(=O)Nc1cn2nc(Oc3cccc(NC(=O)c4cccc(C(F)(F)F)c4)c3)ccc2n1 measurement_target=CAMK2D recorded_number=1

----------
# %Inh per entry
- System: ANKK1
- PARTICULARS: concentration: 1 μM, replicates: in singlicate; n = 1
OBSERVATION TYPE: %Inh (%)

compound="CC(C)NCC(Cc1ccccc1)NC(=O)c1cc(Br)c(-c2ccnc3[nH]ccc23)s1.Cl.Cl (stereo not drawn)" observation_type=%Inh recorded_number=17
compound=CN(C)c1ncnc2nc[nH]c12 observation_type=%Inh recorded_number=0
compound=Nc1ncc(-c2ccc3nccc(-c4ccncc4)c3c2)cc1S(=O)(=O)N1CCCCC1 observation_type=%Inh recorded_number=35

----------
- System: DYRK2
- PARTICULARS: concentration: 1 μM, replicates: in singlicate; n = 1
OBSERVATION TYPE: %Inh

compound="COc1cc(Nc2nccc(N3CCC(NC(=O)Nc4ccc5c(c4)OCO5)C3)n2)cc(OC)c1OC (stereo not drawn) [GSK1379766]" measurement_target=DYRK2 result=0%
compound="CN(C)CCNS(=O)(=O)c1ccc(-c2ccnc3[nH]ccc23)cc1 [GSK977620]" measurement_target=DYRK2 result=64%
compound="O=C(O)C(F)(F)F.O=c1[nH]ccc2nc(N[C@@H]3CCNC3)nc(Nc3cc(Cl)cc(Cl)c3)c12 [GSK2188764]" measurement_target=DYRK2 result=36%
compound="CN(C)c1ncnc2nc[nH]c12 [SKF-31736]" measurement_target=DYRK2 result=23%
compound="Fc1cc(Cl)ccc1Nc1ccnc2cc(-c3ccc(CN4CCSCC4)o3)ccc12 [GW560106]" measurement_target=DYRK2 result=13%
compound="Cc1cc(-c2ccnc(Nc3cccc(C#N)c3)n2)cc(C)c1O [GSK1440913]" measurement_target=DYRK2 result=61%
compound=CC(=O)Nc1cn2nc(Oc3cccc(NC(=O)c4cccc(C(F)(F)F)c4)c3)ccc2n1 measurement_target=DYRK2 result=0%
compound="COc1cccc(C2=C(Nc3cccc(O)c3)C(=O)NC2=O)c1 [SB-390771]" measurement_target=DYRK2 result=9%
compound="Nc1ncc(-c2cn[nH]c2)c2scc(-c3ccc4c(c3)CCN4C(=O)Cc3ccccc3)c12 [GSK2593067]" measurement_target=DYRK2 result=7%
